Value source: patent US20100310640A1

assay.system: T1, HLA-DR DRB1*0301 (human)
T1 chain 1: not shown
T1 chain 2: not shown
assay.remarks: radioligand inhibition, purified HLA-DR
assay.context: remark: other sources report otherwise
Below, each entry is listed with its recorded log10 IC50.
Would you kindly interpret these values as log10 of IC50 expressed in nM?

Study these solved cases before continuing.
-- ask State the recorded log10 IC50 for this entry: LQRYSEDPTVPLPSE [Peptide 9019.0099]
-- reply 1.26

-- ask State the recorded log10 IC50 for this entry: EALLESSLRQAQQNM [Cyclin D1.252]
-- reply 2.18

-- ask State the recorded log10 IC50 for this entry: KLCIYTDNSIRPEEL [Cyclin D1.123]
-- reply 1.81

-- ask State the recorded log10 IC50 for this entry: APTIRGDPECHLFYN [Peptide 9019.0022]
-- reply 1.49

-- ask State the recorded log10 IC50 for this entry: ELAVFREKVTEQHRQ [Peptide 9019.0018]
-- reply 3.94

-- ask State the recorded log10 IC50 for this entry: RWCIPWQRLLLTASL [CEA.10 peptide 9019.0104]
-- reply 3.90

Consider the record given below.
-- ask State the recorded log10 IC50 for this entry: RPRFRELVSEFSRMA [Peptide 9019.0095]
-- reply 3.79
